tested on: SK-MEL-2; assay: NCI tumour cell line growth inhibition, 48 h
Activity calls are given as the source filed them. No stated cut-off is given here; in the data, active = GI50 up to about 1.1 µM and inactive = higher.
Measured GI50, listed per entry for reference.

c1ccc([B-]2(c3ccccc3)OCCc3cccc[n+]32)cc1 :: 75.9 µM (inactive)

Which GI50 value is on record for O=C1NC2NC3NC(=O)NC3NC2N1 (configuration not stated) ? > 100 µM (inactive)

Also `CN(CCCN=C=S)CCCN1c2ccccc2CCc2ccccc21` ? 1.86 µM (inactive)

Try the compound `O=C1/C(=C/c2ccc(Cl)cc2)Sc2scc(-c3cccc([N+](=O)[O-])c3)[n+]21` 12.9 µM (inactive)

Same again, this time with C#CCOC(=O)C(N)CCCNC(=N)N (configuration not stated) > 100 µM (inactive)

Input `CC(C)n1c(=O)n(-c2ccccc2)n(C(C)(C)C)c1=O` > 100 µM (inactive)

Next up: Fc1ccccc1C1SCC2=Nc3ccccc3CN21 (configuration not stated) 43.6 µM (inactive)

Here is the next compound: `CCOC(=O)Nn1c(CC#N)nnc1Cc1ccccc1` > 100 µM (inactive)

Please give the result for `N/N=C1/CCCc2nonc21` too. > 100 µM (inactive)

src = ChEMBL document CHEMBL1201862
